System: NCI-H23 lung
Test: NCI tumour cell line growth inhibition, 48 h
For each record, write down the corresponding TGI.

Req: Quick one: TGI for COc1ccc(-c2cc(=O)c3ccc(F)cc3[nH]2)cc1 ?
Resp: > 100 µM

Req: Also, O=C1Nc2ccc(CN3CCOC3=O)cc2/C1=C/c1cc(CN2CCOCC2)c[nH]1 please.
Resp: > 100 µM

Req: Also, CC1(C)Cc2nnsc2C2=C1C(=O)CCS2 please.
Resp: > 100 µM

Req: Also, O=C(c1ccccc1)c1ccc(O)c2ncccc12 please.
Resp: 19.6 µM

Req: Also, CC(=O)OC1CC2(O)C(CCC3(C)C(c4ccc(=O)oc4)CCC32O)C2(C)CCC(OC3OC(CO)C(O)C(O)C3O)C=C12 (configuration not stated) please.
Resp: 0.0539 µM

Req: Also, N=C1N=C(N)S/C1=C\c1ccc2ncccc2c1 please.
Resp: > 25 µM

Req: Also, Cc1cc(Cl)cc2c1NC(=O)C2(O)CC(=O)c1ccc(F)cc1 (configuration not stated) please.
Resp: > 100 µM

Req: Also, COc1cc(OC)c2nc(C)c3c(c2c1)OCC3 please.
Resp: > 100 µM

Req: Also, O=C1C(CO)=C[C@@H](O)[C@H]2O[C@@H]12 please.
Resp: > 100 µM

Req: Also, COc1ccc(C(=O)C/C(=N/NC(N)=S)C(=O)Nc2ccccc2)cc1 please.
Resp: > 100 µM

Req: Also, [O-]/[N+](=N/c1ncc(-c2ccccc2)cn1)c1ncc(-c2ccccc2)cn1 please.
Resp: > 100 µM

Req: Also, CC(=O)[C@]12OC(=O)C3=C1[C@H](CC[C@@H]3C)[C@@H](C)C[C@H]2C=C(C)C please.
Resp: 17.9 µM

Req: Also, CC(=O)Oc1ccccc1C(=O)NCCC[Se]C#N please.
Resp: 7.57 µM

Req: Also, COc1ccccc1Nc1nc2ccccc2c2occc12 please.
Resp: 35.9 µM

Req: Also, COc1ccc(Nc2ncc(-c3ccccc3)o2)cc1OC please.
Resp: > 25 µM

Req: Also, COC(=O)C1=C(C(=O)OC)C(OO)(c2ccccc2)OC1=O (configuration not stated) please.
Resp: > 100 µM

Req: Also, COc1cc(/C=C2\NC(=S)C3Cc4c(OC)c(C)c(OC)c(OC)c4C2N3C)c(OC)c(C)c1OC (configuration not stated) please.
Resp: > 100 µM

###

Test system: NCI-H460 lung
Experiment: NCI tumour cell line growth inhibition, 48 h
Outcome Measure: TGI

Req: Which TGI is reported with NCI-H460 lung for this entry: CC1(Cc2cc3c(cc2C2(c4ccc([N+](=O)[O-])cc4)OCCO2)OCO3)OCCO1 ?
Resp: > 100 µM

Req: Also, COc1ccc2c(c1)C(=O)c1c-2n(CCCN=[N+]=[N-])c(=O)c2cc(N)ccc12 please.
Resp: > 100 µM

Req: Also, O=C1OC(C2Cc3ccc4c(c3C2=O)CCCC4)c2ccccc21 (stereo not drawn) please.
Resp: > 100 µM

###

Test system: SNB-75 CNS
Assay: NCI tumour cell line growth inhibition, 48 h; in the data active means GI50 below about 0.43 µM; inactive means the rest
Hi there, use one of these labels in your reply, thanks! YES (active), NO (inactive)

Req: For O=c1oc2c(cc1-c1ccccc1)C(O)Oc1ccccc1-2 (stereo unspecified) , what call appears in the results of this test?
Resp: NO

Req: Also, COc1ccc(C2CC(c3cccc(OC)c3)=NN2C(=O)c2cc(OC)c(OC)c(OC)c2)cc1 (stereo unspecified) please.
Resp: NO

Req: Also, C=C1[C@@H](O)C[C@H]2C(C)(C)C[C@H](Cl)C[C@]2(C)[C@H]1C[C@H](O)[C@H]1CC(=O)NC1=O please.
Resp: YES

Req: Also, CNC12C3C4C1C1C2C3C41C(=O)N[C@H](C(=O)N(C)[C@H](C[C@@H](OC(C)=O)c1nc(C(=O)N[C@@H](Cc2ccccc2)C[C@H](C)C(=O)OC)cs1)C(C)C)C1CC1 (stereo partly specified) please.
Resp: YES

Req: Also, C[C@@H]1CC[C@@H]2[C@@H]1[C@H](OC(=O)c1ccc3ccccc3c1)[C@]1(C3CCCCC3)C[C@@H](OC(=O)CO)[C@@]2(C)O1 please.
Resp: NO

Req: Also, CCOc1ccc(NC(=O)c2cc3ccccc3cc2O)cc1 please.
Resp: NO

###

System: LOX IMVI melanoma
Experiment: NCI tumour cell line growth inhibition, 48 h
Outcome Measure: TGI

Req: Quick one: TGI for COC1=CC(=O)c2c(n[nH]c2CCNC(=O)OCc2ccccc2)C1=O ?
Resp: 23.7 µM

Req: Also, C/C(CC(=O)Nc1ccccc1)=N\NC(N)=S please.
Resp: > 100 µM

Req: Also, CC(C)(C)c1cc(-c2c3nc(c(-c4cc(C(C)(C)C)cc(C(C)(C)C)c4)c4ccc([nH]4)c(-c4cc(C(C)(C)C)cc(C(C)(C)C)c4)c4nc(c(-c5cc(C(C)(C)C)cc(C(C)(C)C)c5)c5ccc2[nH]5)C=C4)C=C3)cc(C(C)(C)C)c1 please.
Resp: > 100 µM

Req: Also, C[N+]1(C)C/C(=C\c2ccc(O)cc2)C(=O)/C(=C/c2ccc(O)cc2)C1 please.
Resp: > 100 µM

Req: Also, CC1(C)N([O-])[N+](=O)C1(Br)c1ccccc1 (configuration not stated) please.
Resp: > 100 µM

Req: Also, COc1ccc(C2SCC(=O)N2NC(=O)C(O)c2ccccc2)cc1 (configuration not stated) please.
Resp: > 100 µM

Req: Also, CC(=O)OC1CC2(O)C(CCC3(C)C(c4ccc(=O)oc4)CCC32O)C2(C)CCC(OC3OC(CO)C(O)C(O)C3O)C=C12 (configuration not stated) please.
Resp: 0.109 µM

Req: Also, NC(=S)N/N=C1\CC(c2ccccc2)Nc2ccccc21 (configuration not stated) please.
Resp: > 100 µM

Req: Also, OCC#CCCCCOCC#Cc1ccccc1C#CCOCCCCC#CCO please.
Resp: 27.3 µM

Req: Also, CC1NCCc2c1[nH]c1cc(O)ccc21 (configuration not stated) please.
Resp: > 100 µM

Req: Also, Cc1cc(S(=O)(=O)Nc2nc3ccccc3[nH]2)c(SCc2ccccc2)cc1Cl please.
Resp: > 100 µM

Req: Also, CC(C)C[C@H]1C(=O)N2CCC[C@H]2[C@]2(O)O[C@](NC(=O)[C@@H]3C=C4c5cccc6[nH]c(Br)c(c56)C[C@H]4N(C)C3)(C(C)C)C(=O)N12 please.
Resp: > 100 µM

###

Test system: HT29 colon
Experiment: NCI tumour cell line growth inhibition, 48 h
*1 amine or outer side, *2 acyl side, *3 side chain or, on linkers, in order; H or OH if unused. Where a SMILES comes first, the peptide text is derived from it. Bridges are numbered along the chain shown (N, C = ends). [ ]: non-standard residue; d: D form. X59 = COc1c(N[*:1])cccc1C(=O)O[C@H](C(=O)[C@H](C)C(=O)[*:2])C(C)C; X58 = CC(C)C[C@H](C(=O)[*:2])C(C)C(=O)C1CCCN1[*:1]; NMeY = CN[C@@H](Cc1ccc(O)cc1)C(=O)O; Lac = C[C@H](O)C(=O)O
Outcome Measure: TGI

Req: Quick one: TGI for OCc1ncc(-c2ccccc2)s1 ?
Resp: > 100 µM

Req: Also, O=C(O)c1cc2cc(O)ccc2[nH]1 please.
Resp: > 100 µM

Req: Also, OCC#CCCCCOCC#Cc1ccccc1C#CCOCCCCC#CCO please.
Resp: 63.6 µM

Req: Also, Cc1ccccc1C1CC(=O)CC(c2ccccc2C)C12C(=O)NC(=S)NC2=O (stereo not given) please.
Resp: 54.3 µM

Req: Also, Cc1nc2ccccc2c(/C=C/c2ccccc2)c1C(=O)/C=C/c1ccc(Cl)cc1 please.
Resp: 6.36 µM

Req: Also, C[N+]1(c2ccccc2)C=C(c2ccccc2)SC1=S (stereo not given) please.
Resp: > 100 µM

Req: Also, Cc1nc2ccccc2c(=O)n1/N=C(\N=Nc1ccccc1Cl)c1ccccc1 please.
Resp: 47.6 µM

Req: Also, Cc1ccc(S(=O)(=O)OI(O)CC(F)(F)F)cc1 please.
Resp: > 100 µM

Req: Also, O=[N+]([O-])c1ccc2nc3ccscc-3c2c1 please.
Resp: > 100 µM

Req: Also, CNc1cccc2c1C(C)C[C@]1(C)C(=O)Nc3ccccc3[C@H]21 (stereo not given in full) please.
Resp: 81.6 µM

Req: Also, CC(=O)c1c2c(cc3c1CC1(C3)Cc3cc4c(c(C(C)=O)c3C1)CCCC4)CCCC2 please.
Resp: > 100 µM

Req: Also, Cc1cccc2c(N=Nc3ccccc3[N+](=O)[O-])c(O)[nH]c12 please.
Resp: > 52.7 µM

Req: Also, CCOC(=O)C1=C(c2ccccc2)NC(c2ccccc2)=C(C(=O)OCC)c2c1c(=O)cc[nH]c2=O please.
Resp: > 100 µM

Req: Also, O=[N+]([O-])c1cc2ccc1OCc1cccc(n1)COc1ccc(cc1[N+](=O)[O-])C=NCCCCCCCCN=C2 please.
Resp: > 100 µM

Req: Also, CC1(C)CC2C(/C1=N/O)C1(C)CCCC2(C)C1O (stereo not given) please.
Resp: > 100 µM

Req: Also, Cc1ccc(C2=Nn3c(nc4sc5c(c4c3=O)CCCC5)SC2)cc1 please.
Resp: > 100 µM

Req: Also, COc1ccc(C[C@H]2C(=O)O[C@H](C)[C@H](NC(=O)[C@@H](CC(C)C)C(C)C(=O)C3CCCN3C(=O)[C@H](C)O)C(=O)Nc3cccc(c3OC)C(=O)O[C@@H](C(C)C)C(=O)[C@H](C)C(=O)N[C@@H](CC(C)C)C(=O)N3CCC[C@H]3C(=O)N2C)cc1 (stereo not given in full) (H-[Lac][X58]T[X59]LP[NMeY](Me); ester 3-C) please.
Resp: > 12.5 µM

Req: Also, C=C(C)CCN(C(=O)OC(C)(C)C)c1cc(C(C)C)co1 please.
Resp: > 100 µM

Req: Also, C=CCN1C(=O)/C(=C/c2ccc(OC)cc2)N=C1SC1OC(COC(C)=O)C(OC(C)=O)C(OC(C)=O)C1OC(C)=O (stereo not given) please.
Resp: 22.4 µM

Req: Also, O=C(/C=C/c1ccc(O)cc1)c1cc(-c2cc(CCC(=O)c3ccc(O)cc3O)ccc2O)c(O)cc1O please.
Resp: 35.8 µM

Req: Also, Nc1ccc(S(=O)(=O)NCCS(=O)(=O)O)cc1 please.
Resp: > 100 µM

Req: Also, N#CCN1CCN(CC#N)CCN(CC#N)CCN(CC#N)CC1 please.
Resp: > 100 µM

Req: Also, C/C(=C(/C)c1cc[n+](C)cc1)c1cc[n+](C)cc1 please.
Resp: > 75 µM

Req: Also, NCCn1cnc2nc(NC(=O)c3ccccc3)[nH]c(=O)c21 please.
Resp: > 100 µM

Req: Also, C[CH2][Ge]([CH2]C)([CH2]C)[O]C(=O)C([O][Ge]([CH2]C)([CH2]C)[CH2]C)c1ccccc1 (stereo not given) please.
Resp: 46.4 µM
